Assay: melting temperature; fluorescence melt of hairpins on a sequencing array, two-state fit, raised by 9.35 °C to match UV melts
Conditions: sodium 0.088 M
Rule: Tm below 60 °C gives rule met, anything at or above gives rule not met.

Consider the sequence GATAGCGGAAACGCTATC (((((((....))))))) . Is its Tm strictly less than 60 °C?
rule not met

Field entry: GGTTACGAAAGTATTACC ((((((....)))..)))
rule met

Field entry: GCCCCCGAAAGGGGTGGC ((((((....)))..)))
rule met

Field entry: GCCCTGCGAAAGCACTGC ((..(((....)))..))
rule met

Field entry: GGTCTGGCGAAAGCCACC (((..(((....))))))
rule met
